Molecular target: HLA-B08:01 (human)
Experiment: competition with 125I probe peptide for purified HLA class I
Property Name: pIC50
Here pIC50 is given on a logarithmic scale as minus log10 of the concentration in mol/L.

Any idea what its pIC50 is? The binder is LKKLRSPL (also called SMAP1(-1))
9.22
